Origin of the recorded values: patent US20260001849A1

target: hERG channel (Homo sapiens); construct: host or cells: CHO cells; assay: hERG channel inhibitory activity, whole-cell patch clamp (auto-patch clamp system); assay type: cell-based; details: read-out: hERG IC50
Sequence (Q12809 whole entry): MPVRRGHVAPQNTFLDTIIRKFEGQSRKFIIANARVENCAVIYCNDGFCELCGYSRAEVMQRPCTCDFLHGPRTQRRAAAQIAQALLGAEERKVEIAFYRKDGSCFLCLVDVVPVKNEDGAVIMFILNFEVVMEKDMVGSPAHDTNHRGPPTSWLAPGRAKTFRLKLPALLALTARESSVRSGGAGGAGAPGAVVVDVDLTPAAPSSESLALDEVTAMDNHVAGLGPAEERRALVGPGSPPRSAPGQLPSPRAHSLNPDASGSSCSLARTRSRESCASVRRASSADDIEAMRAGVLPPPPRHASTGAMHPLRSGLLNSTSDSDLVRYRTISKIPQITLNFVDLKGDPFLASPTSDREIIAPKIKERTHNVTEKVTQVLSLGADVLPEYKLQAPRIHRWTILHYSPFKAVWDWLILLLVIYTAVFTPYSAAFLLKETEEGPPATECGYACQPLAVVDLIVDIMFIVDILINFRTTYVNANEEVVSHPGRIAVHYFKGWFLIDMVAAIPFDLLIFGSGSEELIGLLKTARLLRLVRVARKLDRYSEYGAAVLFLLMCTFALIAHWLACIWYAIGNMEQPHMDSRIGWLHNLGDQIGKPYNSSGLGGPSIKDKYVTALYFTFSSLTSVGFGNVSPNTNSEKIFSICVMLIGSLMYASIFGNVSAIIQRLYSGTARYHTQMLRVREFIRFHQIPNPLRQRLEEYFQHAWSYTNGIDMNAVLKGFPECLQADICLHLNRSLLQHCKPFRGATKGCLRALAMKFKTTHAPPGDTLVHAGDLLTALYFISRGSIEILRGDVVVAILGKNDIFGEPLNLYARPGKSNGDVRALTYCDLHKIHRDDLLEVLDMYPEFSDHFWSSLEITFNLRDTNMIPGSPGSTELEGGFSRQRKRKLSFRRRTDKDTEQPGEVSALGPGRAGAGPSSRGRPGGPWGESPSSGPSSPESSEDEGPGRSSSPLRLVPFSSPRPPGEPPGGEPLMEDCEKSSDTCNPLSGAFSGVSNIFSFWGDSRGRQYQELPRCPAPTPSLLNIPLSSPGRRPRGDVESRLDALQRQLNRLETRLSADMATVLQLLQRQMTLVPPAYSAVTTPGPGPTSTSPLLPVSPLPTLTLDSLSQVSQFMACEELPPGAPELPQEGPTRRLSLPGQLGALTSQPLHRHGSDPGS
Provide the recorded IC50 for the entries that follow.

Here is how some molecules turned out for IC50.
{"molecule": "Cc1ccc([C@H]2CN(CCCC(=O)O)[C@H](C)CN2C(=O)CNC(=O)/C=C/c2ccc(C(F)(F)F)cc2F)cc1", "value.observed": "15.2 µM"}
{"molecule": "N#Cc1cc(CC(=O)O)cc2c1CN(C(=O)CNC(=O)/C=C/c1ccc(C(F)(F)F)cc1F)CC2", "value.observed": "> 30 µM"}
{"molecule": "O=C(O)CCc1ccc2c(c1)CCN(C(=O)CNC(=O)/C=C/c1ccc(C(F)(F)F)cc1)C2", "value.observed": "> 30 µM"}
{"molecule": "[2H]C([2H])([2H])[C@@H]1CN(C(=O)CNC(=O)/C=C/c2ccc(C(F)(F)F)cc2F)[C@@H](c2ccccc2)CN1CCCC(=O)O", "value.observed": "> 30 µM"}
{"molecule": "N#Cc1cc2c(cc1CC(=O)O)CCN(C(=O)CNC(=O)/C=C/c1ccc(I)cc1F)C2", "value.observed": "28.5 µM"}
{"molecule": "CC1CN(C(=O)CNC(=O)/C=C/c2ccc(C(F)(F)F)cc2F)CCN1CCCC(=O)O (stereo not shown)", "value.observed": "> 30 µM"}

# input for lookup
Req: Give me measured IC50, please, for this molecule: O=C(O)CCCN1CCN(C(=O)CNC(=O)/C=C/c2ccc(C(F)(F)F)cc2F)C(c2ccccc2)C1 (single isomer, unassigned)
Resp: > 30 µM

====

target: hERG channel (Homo sapiens); construct: host or cells: CHO cells; assay: hERG channel inhibitory activity, whole-cell patch clamp (auto-patch clamp system); format: cell-based; settings: read-out: hERG IC50
pIC50: −log10 of the molar value.
Provide the recorded pIC50 for the entries that follow.

Here is how some compounds turned out for pIC50.
{"compound": "O=C(/C=C/c1ccc(C(F)(F)F)cc1)NCC(=O)N1CCc2cc(N3CCC(C(=O)O)CC3)ncc2C1", "value.observed": "< 4.52"}
{"compound": "O=C(O)Cc1nc2c(s1)CCN(C(=O)CNC(=O)/C=C/c1ccc(C(F)(F)F)cc1)C2", "value.observed": "< 4.52"}
{"compound": "N#Cc1cc2c(cc1CC(=O)O)CCN(C(=O)CNC(=O)/C=C/c1ccc(C(F)(F)F)cc1F)C2 [I-225]", "value.observed": 4.58}

# input for lookup
Req: Give me measured pIC50, please, for this compound: O=C(O)CCCN1CCN(C(=O)CNC(=O)/C=C/c2ccc(C(F)(F)F)cc2F)C(c2ccc(Cl)cc2)C1 (racemic)
Resp: < 4.52

====

Provide the recorded log10 of IC50 for the entries that follow.
molecular target: Human BOAT1 (Homo sapiens); construct: expressed in transfected cells; experiment: hBOAT1 inhibitory test (phenylalanine uptake); assay type: cell-based; conditions: Human BOAT1 stable expression CHO cells; phenylalanine uptake, phenylalanine 0.25 mM; read-out: hB0AT1 IC50
Sequence (Q695T7 whole entry): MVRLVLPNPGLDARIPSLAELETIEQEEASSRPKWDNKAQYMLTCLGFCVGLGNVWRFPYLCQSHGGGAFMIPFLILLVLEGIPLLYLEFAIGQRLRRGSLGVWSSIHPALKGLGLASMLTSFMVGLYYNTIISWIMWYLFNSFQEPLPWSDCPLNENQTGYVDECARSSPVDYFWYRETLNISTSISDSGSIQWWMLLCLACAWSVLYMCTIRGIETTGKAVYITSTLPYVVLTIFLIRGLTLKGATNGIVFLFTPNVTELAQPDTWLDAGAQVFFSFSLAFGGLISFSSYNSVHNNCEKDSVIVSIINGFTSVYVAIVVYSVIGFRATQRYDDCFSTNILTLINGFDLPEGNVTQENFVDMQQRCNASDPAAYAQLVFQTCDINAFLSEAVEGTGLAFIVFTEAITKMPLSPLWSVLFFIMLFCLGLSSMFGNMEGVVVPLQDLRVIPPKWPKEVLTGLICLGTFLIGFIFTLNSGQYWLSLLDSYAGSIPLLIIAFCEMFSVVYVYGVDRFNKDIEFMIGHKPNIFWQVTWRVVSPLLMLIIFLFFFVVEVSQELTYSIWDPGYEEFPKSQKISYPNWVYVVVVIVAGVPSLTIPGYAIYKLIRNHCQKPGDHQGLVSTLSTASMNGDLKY
Transform log10 | Measure IC50 | Unit nM

Consider the following items and state reported log10 of IC50 for each.
1. C[C@H]1[C@H](c2ccccc2)N(C(=O)CNC(=O)/C=C/c2ccc(C(F)(F)F)cc2F)CCN1CCCC(=O)O
2. O=C(/C=C/c1ccc(C(F)(F)F)cc1F)NCC(=O)N1CCN(CC2CC(C(=O)O)C2)CC1c1ccc(Cl)cc1 (single isomer, unassigned) [I-297]
3. C[C@@H]1CN(C(=O)CNC(=O)/C=C/c2ccc(C(F)(F)F)cc2F)[C@@H](c2ccccc2)CN1CC#CC(=O)O
4. CNC(=O)Cc1ccc2c(c1)CCN(C(=O)CNC(=O)/C=C/c1ccc(C(F)(F)F)cc1)C2
5. C[C@@H]1[C@H](c2ccccc2)N(C(=O)CNC(=O)/C=C/c2ccc(C(F)(F)F)cc2F)CCN1CCCC(=O)O
6. O=C(O)Cc1ccccc1C1=CCCN(C(=O)CNC(=O)/C=C/c2ccc(C(F)(F)F)cc2F)C1
7. CC1(C)CN(C(=O)CNC(=O)/C=C/c2ccc(C(F)(F)F)cc2F)[C@@H](c2ccccc2)CN1CCCC(=O)O

Resp:
1: 3.51; 2: 1.57; 3: 2.55; 4: 1.48; 5: 2.60; 6: 2.80; 7: 2.15
